Tested on: Edwardsiella tarda
Assay: MIC, microdilution in 96-well plates
Format: cell-based
Details: D: Edwardsiella tarda
Procedure: A microdilution method in 96-well plates was used and the MIC protocol established by the Clinical Laboratory Standards Institute was followed. […] The MIC was determined as the lowest concentration that inhibited growth and had no turbidity by visual inspection. Minimum inhibitory concentrations of various gyramide compounds against 20 strains of bacteria were determined using the procedure described above.
Readings of MIC for the listed compounds

The cases that follow already have their MIC on record.
compound="N#Cc1cccc(S(=O)(=O)N[C@@H]2CCN(Cc3ccc(-c4cccc(Cl)c4)cc3)C2)c1 [Compound 24]" observed_result="> 8 mg/L"
compound="N#Cc1cccc(S(=O)(=O)N[C@@H]2CCN(Cc3ccc(-c4ccccc4Cl)cc3)C2)c1 [Compound 70]" observed_result="> 8 mg/L"
compound="O=C1CCCN1c1ccc(CN2CC[C@@H](NS(=O)(=O)c3cccc(OC(F)(F)F)c3)C2)cc1 [Compound 100]" observed_result="> 8 mg/L"

Prompt: Request: MIC, test system Edwardsiella tarda, entry N#Cc1ccc(Cl)c(S(=O)(=O)N[C@@H]2CCN(Cc3ccc(OC4CC4)cc3)C2)c1 [Compound 77]
Response: 8 mg/L

Prompt: Request: MIC, test system Edwardsiella tarda, entry N#Cc1cccc(S(=O)(=O)N[C@@H]2CCN(Cc3ccc(-n4ccnn4)cc3)C2)c1 [Compound 7]
Response: > 8 mg/L

Prompt: Request: MIC, test system Edwardsiella tarda, entry Cc1c(S(=O)(=O)N[C@@H]2CCN(Cc3ccc(OC(C)C)cc3)C2)sc2ccc(Cl)cc12 [Compound 83]
Response: > 8 mg/L

Prompt: Request: MIC, test system Edwardsiella tarda, entry COc1ccccc1-c1ccc(CN2CC[C@@H](NS(=O)(=O)c3cccc(C#N)c3)C2)cc1 [Compound 127]
Response: > 8 mg/L

Prompt: Request: MIC, test system Edwardsiella tarda, entry N#Cc1cccc(S(=O)(=O)N[C@@H]2CCN(Cc3ccc(-c4cccs4)cc3)C2)c1 [Compound 25]
Response: > 8 mg/L

Prompt: Request: MIC, test system Edwardsiella tarda, entry CC(=O)c1cc(S(=O)(=O)N[C@@H]2CCN(Cc3ccc(-c4ccccc4)cc3)C2)ccc1C [Compound 68]
Response: > 8 mg/L

Prompt: Request: MIC, test system Edwardsiella tarda, entry Cc1ccc(C#N)cc1S(=O)(=O)N[C@@H]1CCN(Cc2ccc(OC3CC3)cc2)C1 [Compound 113]
Response: ~8 mg/L

Prompt: Request: MIC, test system Edwardsiella tarda, entry N#Cc1cccc(S(=O)(=O)N[C@@H]2CCN(Cc3ccc(OC(F)(F)F)cc3)C2)c1 [Compound 17]
Response: > 8 mg/L

Prompt: Request: MIC, test system Edwardsiella tarda, entry N#Cc1cccc(S(=O)(=O)N[C@@H]2CCN(Cc3cn(-c4ccccc4)nn3)C2)c1 [Compound 124]
Response: > 8 mg/L

Prompt: Request: MIC, test system Edwardsiella tarda, entry O=S(=O)(N[C@@H]1CCN(Cc2ccc(-c3ccccc3)cc2)C1)c1cnccc1Cl [Compound 122]
Response: > 8 mg/L

Prompt: Request: MIC, test system Edwardsiella tarda, entry CSc1ccc(CN2CC[C@@H](NS(=O)(=O)c3cccc(C#N)c3)C2)cc1 [Compound 31]
Response: > 8 mg/L

Prompt: Request: MIC, test system Edwardsiella tarda, entry CC(C)(C)Oc1ccc(CN2CC[C@@H](NS(=O)(=O)c3cccc(C#N)c3)C2)cc1 [Compound 13]
Response: > 8 mg/L

The origin of these recorded values is patent US10253039B2.
